target: recombinant human CLK3 (Homo sapiens, UniProt P49761); test: CLK3 kinase assay (LANCE Ultra); conditions: CLK3 0.5 nM, ATP 300 μM, 3 hours at 30° C.
Sequence (P49761 whole entry): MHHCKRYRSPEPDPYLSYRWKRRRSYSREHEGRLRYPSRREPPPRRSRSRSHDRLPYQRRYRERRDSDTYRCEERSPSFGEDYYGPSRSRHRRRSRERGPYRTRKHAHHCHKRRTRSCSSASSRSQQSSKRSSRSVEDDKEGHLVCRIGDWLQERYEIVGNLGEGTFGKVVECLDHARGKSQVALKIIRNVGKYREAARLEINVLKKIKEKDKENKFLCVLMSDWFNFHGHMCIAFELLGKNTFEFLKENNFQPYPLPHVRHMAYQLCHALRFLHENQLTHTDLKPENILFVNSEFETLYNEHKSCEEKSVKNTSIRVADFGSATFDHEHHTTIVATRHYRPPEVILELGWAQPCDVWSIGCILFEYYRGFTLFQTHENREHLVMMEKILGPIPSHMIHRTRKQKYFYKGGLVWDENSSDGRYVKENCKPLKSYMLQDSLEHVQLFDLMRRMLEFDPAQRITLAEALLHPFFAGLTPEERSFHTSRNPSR
Please provide measured IC50 for the entries that follow.

input: What value of IC50 has been reported for the following molecule? CN(CC#N)c1c(O[C@H]2CC[C@@H](N)CC2)ccc2c1CC(C)(C)c1c(N)ncnc1-2
output: < 30 nM

input: Continue with CC1(C)Cc2c(ccc(O[C@H]3CC[C@H](N)CC3)c2NCCO)-c2ncnc(N)c21
output: < 30 nM

input: Continue with CC1(C)Cc2c(ccc(O[C@H]3CC[C@H](N)CC3)c2N2CCC(C#N)C2)-c2ncnc(N)c21 (single isomer, unassigned) [Example 49]
output: < 30 nM

input: Continue with CN1CCOc2ccc3c(c21)CC(C)(C)c1c(N)ncnc1-3
output: 30 to 100 nM

###

target: recombinant human CLK3 (Homo sapiens, UniProt P49761); assay: CLK3 kinase assay (LANCE Ultra); details: CLK3 0.5 nM, ATP 300 μM, 3 hours at 30° C.
Please provide measured IC50 for the entries that follow.

input: What value of IC50 has been reported for the following compound? CN(c1c(O[C@H]2CC[C@H](N)CC2)ccc2c1CC(C)(C)c1c(N)ncnc1-2)S(=O)(=O)CCO
output: < 0.03 µM

input: Continue with CC1(C)Cc2c(ccc(O[C@H]3CC[C@H](N)CC3)c2S(=O)(=O)CCC#N)-c2ncnc(N)c21
output: 0.03 to 0.1 µM

input: Continue with COC1CCN(c2c(O[C@H]3CC[C@H](N)CC3)ccc3c2CC(C)(C)c2c(N)ncnc2-3)C1 (single isomer, unassigned) [Example 73]
output: 0.03 to 0.1 µM

input: Continue with COc1ccc2c(c1N1CCC(C#N)C1)CC(C)(C)c1c(N)ncnc1-2 (stereo not drawn)
output: 0.03 to 0.1 µM

input: Continue with CN[C@H]1CC[C@H](Oc2ccc3c(c2N(C)CCC#N)CC(C)(C)c2c(N)ncnc2-3)CC1
output: < 0.03 µM

input: Continue with CC1(C)Cc2c(ccc(O[C@H]3CC[C@H](N)CC3)c2N(CCO)CCO)-c2ncnc(N)c21
output: < 0.03 µM

input: Continue with CC1(C)Cc2c(ccc(Br)c2NC[C@@H]2CNC(=O)O2)-c2ncnc(N)c21
output: < 0.03 µM

input: Continue with COC1CCN(c2c(O[C@H]3CC[C@H](N)CC3)ccc3c2CC(C)(C)c2c(N)ncnc2-3)C1 (single isomer, unassigned) [Example 63]
output: 0.03 to 0.1 µM

input: Continue with CC1(C)Cc2c(ccc(O[C@H]3CC[C@H](N)CC3)c2N2CCC(C#N)C2)-c2ncnc(N)c21 (stereo partly drawn) [Example 66]
output: < 0.03 µM

input: Continue with C#CCCN(C)c1c(O[C@H]2CC[C@H](N)CC2)ccc2c1CC(C)(C)c1c(N)ncnc1-2
output: < 0.03 µM

input: Continue with COc1ccc2c(c1N1CC(CO)C1)CC(C)(C)c1c(N)ncnc1-2
output: 0.101 to 1 µM

input: Continue with CN(CC1(C#N)CC1)c1c(O[C@H]2CC[C@H](N)CC2)ccc2c1CC(C)(C)c1c(N)ncnc1-2
output: < 0.03 µM

input: Continue with CN(CCOC(F)(F)F)c1c(O[C@H]2CC[C@H](N)CC2)ccc2c1CC(C)(C)c1c(N)ncnc1-2
output: 0.03 to 0.1 µM

input: Continue with C/C(=C\CO)c1c(O[C@H]2CC[C@H](N)CC2)ccc2c1CC(C)(C)c1c(N)ncnc1-2
output: < 0.03 µM

input: Continue with CN(CCC(F)(F)F)c1c(O[C@H]2CC[C@H](N)CC2)ccc2c1CC(C)(C)c1c(N)ncnc1-2
output: 0.03 to 0.1 µM

###

Please provide measured IC50 for the entries that follow.
molecular target: recombinant human CLK3 (Homo sapiens); assay: CLK3 kinase assay (LANCE Ultra); conditions: CLK3 0.5 nM, ATP 300 μM, 3 hours at 30° C.

input: What value of IC50 has been reported for the following compound? CN(CCC#N)c1c(OC2CCNCC2)ccc2c1CC(C)(C)c1c(N)ncnc1-2
output: < 30 nM

input: Continue with CN(CC#N)S(=O)(=O)c1c(O[C@H]2CC[C@H](N)CC2)ccc2c1CC(C)(C)c1c(N)ncnc1-2
output: 30 to 100 nM

input: Continue with CCCOc1c(O[C@H]2CC[C@H](N)CC2)ccc2c1CC(C)(C)c1c(N)ncnc1-2
output: 30 to 100 nM

input: Continue with CCN(CCO)c1c(O[C@H]2CC[C@@H](N)CC2)ccc2c1CC(C)(C)c1c(N)ncnc1-2
output: < 30 nM

input: Continue with CC1(C)Cc2c(ccc(O[C@H]3CC[C@H](N)CC3)c2NCC#N)-c2ncnc(N)c21
output: 30 to 100 nM

input: Continue with COc1ccc2c(c1N1CC(O)C1)CC(C)(C)c1c(N)ncnc1-2
output: 101 to 1000 nM

input: Continue with CC1(C)Cc2c(ccc(O[C@H]3CC[C@H](N4CCOCC4)CC3)c2NC[C@@H]2CNC(=O)O2)-c2ncnc(N)c21
output: < 30 nM

input: Continue with Nc1ncnc2c1C1(CCCC1)Cc1c-2ccc(O[C@H]2CC[C@@H](N)CC2)c1NCCO
output: < 30 nM

###

target: recombinant human CLK3 (Homo sapiens); assay: CLK3 kinase assay (LANCE Ultra); details: CLK3 0.5 nM, ATP 300 μM, 3 hours at 30° C.
Please provide measured IC50 for the entries that follow.

input: What value of IC50 has been reported for the following molecule? CN(CCC#N)c1c(Br)ccc2c1CC(C)(C)c1c(N)ncnc1-2 [Example 115]
output: < 30 nM

input: Continue with CC1(C)Cc2c(ccc(O[C@H]3CC[C@H](N)CC3)c2N)-c2ncnc(N)c21 [Example 5]
output: < 30 nM

input: Continue with CN(CCC#N)c1c(O[C@H]2CC[C@H](N)CC2)ccc2c1CC(C)(C)c1c(N)ncnc1-2 [Example 46]
output: < 30 nM

input: Continue with CCOC(=O)CNc1c(O[C@H]2CC[C@@H](N)CC2)ccc2c1CC1(CCCC1)c1c(N)ncnc1-2 [Example 65]
output: 30 to 100 nM

input: Continue with COCCS(=O)(=O)N(C)c1c(O[C@H]2CC[C@H](N)CC2)ccc2c1CC(C)(C)c1c(N)ncnc1-2 [Example 64]
output: < 30 nM

input: Continue with CC(C)CCN(C)c1c(O[C@H]2CC[C@H](N)CC2)ccc2c1CC(C)(C)c1c(N)ncnc1-2 [Example 104]
output: 101 to 1000 nM

input: Continue with CC1(C)Cc2c(ccc3c2N(CCC#N)CCO3)-c2ncnc(N)c21 [Example 117]
output: 30 to 100 nM

input: Continue with CN(CCO)c1c(O[C@H]2CC[C@H](N)CC2)ccc2c1CC(C)(C)c1c(N)ncnc1-2 [Example 12]
output: < 30 nM

###

molecular target: recombinant human CLK3 (Homo sapiens, UniProt P49761); test: CLK3 kinase assay (LANCE Ultra); conditions: CLK3 0.5 nM, ATP 300 μM, 3 hours at 30° C.
pIC50: −log10 of the molar value.
metric-name: pIC50

input: What value of pIC50 has been reported for the following compound? CC(=O)NCCN(C)c1c(O[C@H]2CC[C@H](N)CC2)ccc2c1CC(C)(C)c1c(N)ncnc1-2
output: 7.00 to 7.52

input: Continue with CC(CCC#N)c1c(O[C@H]2CC[C@H](N)CC2)ccc2c1CC(C)(C)c1c(N)ncnc1-2 (stereo partly drawn)
output: > 7.52

input: Continue with CC1(C)Cc2c(ccc(O[C@H]3CC[C@H](N)CC3)c2NC[C@@H]2CNC(=O)O2)-c2ncnc(N)c21
output: > 7.52

###

biological target: recombinant human CLK3 (Homo sapiens, UniProt P49761); assay: CLK3 kinase assay (LANCE Ultra); details: CLK3 0.5 nM, ATP 300 μM, 3 hours at 30° C.
pIC50: −log10 of the molar value.
metric-name: pIC50

input: What value of pIC50 has been reported for the following compound? CC(=O)Nc1c(O[C@H]2CC[C@H](N)CC2)ccc2c1CC(C)(C)c1c(N)ncnc1-2
output: 6.00 to 7.00

input: Continue with CN(Cc1ccncc1)c1c(O[C@H]2CC[C@H](N)CC2)ccc2c1CC(C)(C)c1c(N)ncnc1-2
output: 6.00 to 7.00

input: Continue with CC1(C)C(=O)c2c(ccc(O[C@H]3CC[C@H](N)CC3)c2N)-c2ncnc(N)c21
output: 6.00 to 7.00

input: Continue with CC(CCO)c1c(O[C@H]2CC[C@H](N)CC2)ccc2c1CC(C)(C)c1c(N)ncnc1-2 (some centres unmarked)
output: > 7.52

input: Continue with CC1(C)Cc2c(ccc(O[C@H]3CC[C@H](N)CC3)c2N2CCC(O)C2)-c2ncnc(N)c21 (single isomer, unassigned) [Example 16]
output: > 7.52

input: Continue with CN(CCC#N)c1c(O[C@H]2CC[C@H](N3CCOCC3)CC2)ccc2c1CC(C)(C)c1c(N)ncnc1-2
output: > 7.52

input: Continue with Nc1ncnc2c1C1(CCCC1)Cc1c-2ccc(O[C@H]2CC[C@H](N)CC2)c1N
output: 7.00 to 7.52

input: Continue with CC1(C)Cc2c(ccc(O[C@H]3CC[C@H](N)CC3)c2N2CCC(C(N)=O)C2)-c2ncnc(N)c21 (some centres unmarked)
output: > 7.52
